Molecular target: T1, human 2Ig-B7H3 (B7H3-2Ig-His) (human, UniProt Q5ZPR3 29-466)
T1 construct: Recombinant His-tagged protein immobilised on a CM5 chip; also called 21g-B7H3; B7H3-21g-His; not shown: His tag
T1 sequence: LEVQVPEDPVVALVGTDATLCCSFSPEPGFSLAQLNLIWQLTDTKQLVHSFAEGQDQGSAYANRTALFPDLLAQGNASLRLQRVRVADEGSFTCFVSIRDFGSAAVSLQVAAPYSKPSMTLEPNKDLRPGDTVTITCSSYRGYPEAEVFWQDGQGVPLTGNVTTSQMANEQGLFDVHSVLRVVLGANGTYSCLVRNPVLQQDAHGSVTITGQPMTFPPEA
Experiment: SPR, Biacore T200, 2Ig-B7H3-His on CM5 chip, 1:1 fit
The label criterion met is reserved for t ½ strictly under 5 h; criterion not met covers values equal to or above it.

# binder, classification
data = [
    ("175Lu-DTPA-8H9-antibody (CAR1.4) (antibody, mouse IgG1, kappa, V domains shown, p-SCN-Bn-CHX-A″-DTPA conjugated (CAR 1.4 per antibody), labelled with cold lutetium-175; sites not stated) VH: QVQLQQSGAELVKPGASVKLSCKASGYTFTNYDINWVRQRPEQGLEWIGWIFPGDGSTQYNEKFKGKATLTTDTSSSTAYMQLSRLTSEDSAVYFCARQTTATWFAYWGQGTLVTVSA VL: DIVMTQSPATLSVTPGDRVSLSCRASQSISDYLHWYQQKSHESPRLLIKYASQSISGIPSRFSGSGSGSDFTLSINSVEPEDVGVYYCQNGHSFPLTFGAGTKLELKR", "criterion not met"),
    ("175Lu-DTPA-8H9-antibody (CAR3) (antibody, mouse IgG1, kappa, V domains shown, p-SCN-Bn-CHX-A″-DTPA conjugated (CAR 3 per antibody), labelled with cold lutetium-175; sites not stated) VH: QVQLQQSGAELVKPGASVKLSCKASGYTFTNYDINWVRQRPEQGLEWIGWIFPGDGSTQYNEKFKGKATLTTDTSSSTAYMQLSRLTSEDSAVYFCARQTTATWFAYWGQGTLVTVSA VL: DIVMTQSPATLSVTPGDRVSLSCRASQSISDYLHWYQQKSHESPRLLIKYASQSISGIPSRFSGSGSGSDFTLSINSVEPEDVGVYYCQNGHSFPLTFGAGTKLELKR", "criterion not met"),
    ("hu8H9-3.1 (antibody, V domains shown) VH: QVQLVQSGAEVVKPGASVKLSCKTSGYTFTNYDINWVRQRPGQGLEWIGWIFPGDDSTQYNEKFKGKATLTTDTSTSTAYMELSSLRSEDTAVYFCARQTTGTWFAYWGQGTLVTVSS VL: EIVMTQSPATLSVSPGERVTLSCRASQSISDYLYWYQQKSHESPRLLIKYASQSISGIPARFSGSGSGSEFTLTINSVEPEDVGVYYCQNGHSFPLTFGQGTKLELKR", "criterion met"),
    ("175Lu-DTPA-8H9-antibody (CAR6.1) (antibody, mouse IgG1, kappa, V domains shown, p-SCN-Bn-CHX-A″-DTPA conjugated (CAR 6.1 per antibody), labelled with cold lutetium-175; sites not stated) VH: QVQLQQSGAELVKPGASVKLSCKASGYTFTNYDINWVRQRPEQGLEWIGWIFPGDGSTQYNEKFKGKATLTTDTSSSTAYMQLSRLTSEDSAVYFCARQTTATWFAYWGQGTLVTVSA VL: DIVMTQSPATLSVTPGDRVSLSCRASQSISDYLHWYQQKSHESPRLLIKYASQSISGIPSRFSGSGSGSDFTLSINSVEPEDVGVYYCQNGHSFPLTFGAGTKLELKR", "criterion met"),
    ("175Lu-DOTA-8H9-antibody (CAR6.3) (antibody, mouse IgG1, kappa, V domains shown, p-SCN-Bn-DOTA conjugated (CAR 6.3 per antibody), labelled with cold lutetium-175; sites not stated) VH: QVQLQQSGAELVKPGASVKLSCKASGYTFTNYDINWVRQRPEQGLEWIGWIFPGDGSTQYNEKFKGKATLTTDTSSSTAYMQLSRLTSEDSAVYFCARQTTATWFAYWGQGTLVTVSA VL: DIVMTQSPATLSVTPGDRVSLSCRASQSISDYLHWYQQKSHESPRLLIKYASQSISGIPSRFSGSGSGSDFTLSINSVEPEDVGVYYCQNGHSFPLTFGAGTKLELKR", "criterion not met"),
    ("127I-8H9-antibody P76501A (antibody, mouse IgG1, kappa, V domains shown, labelled with iodine-127; sites not stated) VH: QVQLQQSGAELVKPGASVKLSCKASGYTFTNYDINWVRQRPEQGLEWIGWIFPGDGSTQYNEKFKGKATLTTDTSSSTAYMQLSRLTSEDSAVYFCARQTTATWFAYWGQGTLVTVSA VL: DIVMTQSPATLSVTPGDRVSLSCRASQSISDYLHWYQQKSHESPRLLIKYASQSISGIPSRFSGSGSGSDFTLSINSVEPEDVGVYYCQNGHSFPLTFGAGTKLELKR", "criterion not met"),
]
